Source: patent US7781421B2

- test.system: rat α1β2γ2 GABAA Receptor (Rattus norvegicus, UniProt P18508+P62813+P63138, INS375LLRMFSFK)
- Construct: from linearized pBluescript vectors containing receptor coding regions; expressed in transfected cells; host or cells: Xenopus laevis oocytes injected with in vitro transcribed capped mRNA
- Sequence (P62813 28-455, stated change not applied): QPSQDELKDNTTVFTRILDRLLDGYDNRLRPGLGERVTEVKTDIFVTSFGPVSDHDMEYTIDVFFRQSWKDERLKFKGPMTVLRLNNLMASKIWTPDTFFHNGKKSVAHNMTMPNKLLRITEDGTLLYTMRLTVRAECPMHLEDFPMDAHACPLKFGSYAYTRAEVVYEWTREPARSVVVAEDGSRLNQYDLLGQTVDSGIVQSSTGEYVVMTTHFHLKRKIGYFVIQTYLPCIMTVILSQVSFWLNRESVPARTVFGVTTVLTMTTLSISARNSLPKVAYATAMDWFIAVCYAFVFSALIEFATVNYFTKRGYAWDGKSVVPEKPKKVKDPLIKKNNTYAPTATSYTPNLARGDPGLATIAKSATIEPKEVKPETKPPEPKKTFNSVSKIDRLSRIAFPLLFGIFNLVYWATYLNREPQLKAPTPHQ
- Sequence (P63138 26-474, stated change not applied): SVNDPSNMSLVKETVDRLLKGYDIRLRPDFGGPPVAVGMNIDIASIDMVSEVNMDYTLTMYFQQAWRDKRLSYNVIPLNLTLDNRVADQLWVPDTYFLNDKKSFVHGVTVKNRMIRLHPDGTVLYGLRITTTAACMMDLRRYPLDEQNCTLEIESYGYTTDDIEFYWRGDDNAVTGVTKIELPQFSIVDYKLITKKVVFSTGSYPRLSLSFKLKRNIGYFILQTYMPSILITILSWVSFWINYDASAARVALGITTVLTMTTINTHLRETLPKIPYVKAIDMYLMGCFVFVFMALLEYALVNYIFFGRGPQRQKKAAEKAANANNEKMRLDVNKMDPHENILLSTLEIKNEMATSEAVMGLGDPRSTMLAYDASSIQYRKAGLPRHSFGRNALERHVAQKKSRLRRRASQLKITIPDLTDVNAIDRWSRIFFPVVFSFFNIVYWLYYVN
- Sequence (P18508 with tags, fused parts or gaps INS375LLRMFSFK): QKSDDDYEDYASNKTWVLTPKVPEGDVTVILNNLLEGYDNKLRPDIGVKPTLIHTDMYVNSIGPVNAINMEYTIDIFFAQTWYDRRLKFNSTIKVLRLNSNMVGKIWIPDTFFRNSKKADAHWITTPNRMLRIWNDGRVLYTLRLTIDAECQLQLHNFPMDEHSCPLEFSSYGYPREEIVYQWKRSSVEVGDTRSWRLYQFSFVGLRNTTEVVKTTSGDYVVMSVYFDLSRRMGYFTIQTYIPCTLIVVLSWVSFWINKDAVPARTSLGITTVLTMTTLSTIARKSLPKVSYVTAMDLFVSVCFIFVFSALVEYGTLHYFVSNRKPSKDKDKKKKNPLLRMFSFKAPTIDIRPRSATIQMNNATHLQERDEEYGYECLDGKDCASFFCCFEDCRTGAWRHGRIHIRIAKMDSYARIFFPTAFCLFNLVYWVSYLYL
- test.description: Xenopus oocyte two-electrode voltage-clamp electrophysiology
- Assay type: cell-based
- test.conditions: 1 μM compound co-applied with 2 μM GABA; −70 mV
Recorded Oocyte electrophysiology, ratio of currents in presence/absence of compound, 1 μM, one value per entry.
Number only, no unit.

compound	reported.result
CC12CCC(O)CC1CCC1C2CCC23CC(=O)C=CC2CCC13 (centres unmarked) [Compound 22c]	1.83
C[C@]12CC[C@@H](O)C[C@@H]1CCC1C3CC[C@@H]4[C@H](C#N)CCC[C@]34CCC12 (some centres unmarked)	1.12
C[C@]12CC[C@@H](O)C[C@@H]1CCC1C3CC[C@@H]4[C@@H](C#N)CCC[C@]34CCC12 (some centres unmarked)	1.23
C=C1CCC[C@]23CCC4C(CC[C@H]5C[C@H](O)CC[C@]45C)C2CC[C@H]13 (some centres unmarked)	0.93
CC12CCC(O)CC1CCC1C2CCC23C(=O)C=CCC2CCC13 (centres unmarked) [Compound 35a]	8.33

GET /values?readout=Oocyte electrophysiology, ratio of currents in presence/absence of compound, 1 μM&item= COC1CCCC23CCC4C(CCC5CC(O)CCC54C)C2CCC13 (centres unmarked) [Compound 69]
1.26

Which value of Oocyte electrophysiology, ratio of currents in presence/absence of compound, 1 μM has been reported for CC12CCC(O)CC1CCC1C2CCC23CCC(=O)CC2CCC13 (centres unmarked) in the records?
1.11

// Oocyte electrophysiology, ratio of currents in presence/absence of compound, 1 μM lookup, key: C[C@]12CC[C@@H](O)C[C@@H]1CCC1C3CC[C@@H]4C[C@@H](C#N)CC[C@]34CCC12 (some centres unmarked)
1.14

Which Oocyte electrophysiology, ratio of currents in presence/absence of compound, 1 μM value belongs to C[C@]12CC[C@@H](O)C[C@@H]1CCC1C3CC[C@@H]4[C@@H]5O[C@@H]5CC[C@]34CCC12 (some centres unmarked) ?
2.20

Would you mind telling me what Oocyte electrophysiology, ratio of currents in presence/absence of compound, 1 μM value was observed for C[C@]12CC[C@@H](O)C[C@@H]1CCC1C3CC[C@@H]4CC(=O)CC[C@]34CCC12 (some centres unmarked) ?
1.61

# get_value(readout='Oocyte electrophysiology, ratio of currents in presence/absence of compound, 1 μM', item= CC(=O)C1CCCC23CCC4C(CCC5CC(O)CCC54C)C2CCC13 (centres unmarked) [Compound 80] )
0.77

* * *

- test.system: rat α1β2γ2 GABAA Receptor (Rattus norvegicus, UniProt P18508+P62813+P63138, INS375LLRMFSFK)
- Construct: from linearized pBluescript vectors containing receptor coding regions; expressed in transfected cells; host or cells: Xenopus laevis oocytes injected with in vitro transcribed capped mRNA
- test.description: Xenopus oocyte two-electrode voltage-clamp electrophysiology
- Type: cell-based
- test.conditions: 0.1 μM compound co-applied with 2 μM GABA; −70 mV
quantity: Oocyte electrophysiology, ratio of currents in presence/absence of compound, 0.1 μM

Please review the following examples before continuing.
compound	reported.result
CC12CCC(O)CC1CCC1C2CCC23C(=O)C=CCC2CCC13 (centres unmarked) [Compound 35b]	1.36 ± 0.60
CC(=O)C1=CCCC23CCC4C(CCC5CC(O)CCC54C)C2CCC13 (centres unmarked)	0.89 ± 0.02
C[C@]12CC[C@@H](O)C[C@@H]1CCC1C3CC[C@@H]4C[C@@H](C#N)CC[C@]34CCC12 (some centres unmarked)	1.19 ± 0.02
CC12CCC(O)CC1CCC1C2CCC23CC4OC4C(=O)C2CCC13 (centres unmarked) [Compound 19b]	1.13 ± 0.02
CC12CCC(O)CC1CCC1C2CCC23C=CC(=O)CC2CCC13 (centres unmarked) [Compound 30b]	1.87 ± 0.24
CC12CCC(O)CC1CCC1C2CCC23CCCC(O)C2CCC13 (centres unmarked) [Compound 67]	0.89 ± 0.03

Sample C[C@]12CC[C@@H](O)C[C@@H]1CCC1C3CC[C@@H]4[C@@H]5O[C@@H]5CC[C@]34CCC12 (some centres unmarked) — what was its Oocyte electrophysiology, ratio of currents in presence/absence of compound, 0.1 μM?
0.90 ± 0.15

Consider the compound CC12CCC(O)CC1CCC1C2CCC23C=C(Br)C(=O)C2CCC13 (centres unmarked) and give its measured Oocyte electrophysiology, ratio of currents in presence/absence of compound, 0.1 μM.
1.25 ± 0.08

Name the reported Oocyte electrophysiology, ratio of currents in presence/absence of compound, 0.1 μM value associated with the compound C[C@]12CC[C@@H](O)C[C@@H]1CCC1C3CC[C@@H]4/C(=C/C#N)CCC[C@]34CCC12 (some centres unmarked)
6.29 ± 1.71

Which Oocyte electrophysiology, ratio of currents in presence/absence of compound, 0.1 μM is listed for C[C@]12CC[C@@H](O)C[C@H]1CCC1C3CCC4CCC(=O)C[C@@]43CCC12 (some centres unmarked) ?
0.97 ± 0.03

# Oocyte electrophysiology, ratio of currents in presence/absence of compound, 0.1 μM lookup, item CC12CCC(O)CC1CCC1C2CCC23CCC(=CC#N)C2CCC13 (centres unmarked) [Compound 97]
0.88 ± 0.07

Quick one: Oocyte electrophysiology, ratio of currents in presence/absence of compound, 0.1 μM of COC1CCCC23CCC4C(CCC5CC(O)CCC54C)C2CCC13 (centres unmarked) [Compound 69] ?
0.90 ± 0.04

What does the data say about its Oocyte electrophysiology, ratio of currents in presence/absence of compound, 0.1 μM? Entry: CC12CCC(O)CC1CCC1C2CCC23CCC(=CC#N)C2CCC13 (centres unmarked) [Compound 96]
1.40 ± 0.21

* * *

- test.system: rat α1β2γ2 GABAA Receptor (Rattus norvegicus, UniProt P18508+P62813+P63138, INS375LLRMFSFK)
- Construct: from linearized pBluescript vectors containing receptor coding regions; expressed in transfected cells; host or cells: Xenopus laevis oocytes injected with in vitro transcribed capped mRNA
- test.description: Xenopus oocyte two-electrode voltage-clamp electrophysiology
- Format: cell-based
- test.conditions: 0.1 μM compound co-applied with 2 μM GABA; −70 mV
quantity: Oocyte electrophysiology, ratio of currents in presence/absence of compound, 0.1 μM
Field format: numeric only.

compound	reported.result
CC12CCC(O)CC1CCC1C2CCC23CCCC(O)C2CCC13 (centres unmarked) [Compound 68]	0.74
CC(=O)C1CCCC23CCC4C(CCC5CC(O)CCC54C)C2CCC13 (centres unmarked) [Compound 80]	0.85
CC12CCC(O)CC1CCC1C2CCC23CC(=O)C=CC2CCC13 (centres unmarked) [Compound 21c]	1.59
C[C@]12CC[C@@H](O)C[C@@H]1CCC1C3CC[C@@H]4C(C#N)=CCC[C@]34CCC12 (some centres unmarked)	0.91
C[C@]12CC[C@@H](O)C[C@H]1CCC1C3CC[C@@H]4C(=O)CCC[C@]34CCC12 (some centres unmarked)	0.93
CC12CCC(O)CC1CCC1C2CCC23C(=O)CCCC2CCC13 (centres unmarked) [Compound 5b]	1.26
C[C@]12CC[C@@H](O)C[C@@H]1CCC1C3CC[C@@H]4[C@]5(CCC[C@]34CCC12)CO5 (some centres unmarked)	1.61
CC12CCC(O)CC1CCC1C2CCC23C(=O)C=CCC2CCC13 (centres unmarked) [Compound 35a]	1.98

I'd like to know its Oocyte electrophysiology, ratio of currents in presence/absence of compound, 0.1 μM. The compound in question is C[C@]12CC[C@@H](O)C[C@@H]1CCC1C3CC[C@@H]4CC(=O)CC[C@]34CCC12 (some centres unmarked)
1.30

Given the entry CC12CCC(O)CC1CCC1C2CCC23CCC=CC2CCC13 (centres unmarked) [Compound 13a] , report its measured Oocyte electrophysiology, ratio of currents in presence/absence of compound, 0.1 μM.
1.53

Look at this compound and give its reported Oocyte electrophysiology, ratio of currents in presence/absence of compound, 0.1 μM. CC12CCC(O)CC1CCC1C2CCC23CC(=O)C=CC2CCC13 (centres unmarked) [Compound 22c]
1.07

* * *

- test.system: rat α1β2γ2 GABAA Receptor (Rattus norvegicus, UniProt P18508+P62813+P63138, INS375LLRMFSFK)
- Construct: from linearized pBluescript vectors containing receptor coding regions; expressed in transfected cells; host or cells: Xenopus laevis oocytes injected with in vitro transcribed capped mRNA
- test.description: Xenopus oocyte two-electrode voltage-clamp electrophysiology
- Type: cell-based
- test.conditions: direct current gated by 10 μM compound in the absence of GABA
Examples of molecules with documented Gating (10 μM), ratio of compound only current/2 μM GABA current follow.
Could you respond with only the numeric value?

Below, 6 molecules whose answers are already recorded.
molecule	reported.result
CC12CCC(O)CC1CCC1C2CCC23CCCC(O)C2CCC13 (stereo not drawn) [Compound 68]	0.01
C[C@]12CC[C@@H](O)C[C@@H]1CCC1C3CC[C@@H]4CCC=C[C@]34CCC12 (stereo partly drawn)	0.19
CC12CCC(O)CC1CCC1C2CCC23C=CC(=O)CC2CCC13 (stereo not drawn) [Compound 30b]	0.26
C[C@]12CC[C@@H](O)C[C@@H]1CCC1C3CC[C@@H]4CC(=O)CC[C@]34CCC12 (stereo partly drawn)	0.06
C[C@]12CC[C@@H](O)C[C@@H]1CCC1C3CC[C@@H]4[C@]5(CCC[C@]34CCC12)CO5 (stereo partly drawn)	−0.01
CC12CCC(O)CC1CCC1C2CCC23CCC(=CC#N)C2CCC13 (stereo not drawn) [Compound 96]	0.03

Param item = CC(=O)C1=CCCC23CCC4C(CCC5CC(O)CCC54C)C2CCC13 (stereo not drawn) ; retrieve measured Gating (10 μM), ratio of compound only current/2 μM GABA current.
0.00

I have this molecule here, COC1CCCC23CCC4C(CCC5CC(O)CCC54C)C2CCC13 (stereo not drawn) [Compound 69] , and I need its recorded Gating (10 μM), ratio of compound only current/2 μM GABA current.
0.00

# get_value(readout='Gating (10 μM), ratio of compound only current/2 μM GABA current', item= CC12CCC(O)CC1CCC1C2CCC23CCCC(O)C2CCC13 (stereo not drawn) [Compound 67] )
−0.01

Entry CC12CCC(O)CC1CCC1C2CCC23C=CC(=O)C2CCC13 (stereo not drawn) has what Gating (10 μM), ratio of compound only current/2 μM GABA current?
−0.04
